# System: COLO 205 colon
# test: NCI tumour cell line growth inhibition, 48 h; in the data active = GI50 below about 0.43 µM; inactive = the rest
One label from this list, please: 1 (yes) = active, 0 (no) = inactive

These solved cases illustrate the format of a correct answer.
INSERT INTO results (compound, tested_target, answer_label) VALUES
  ('COc1cc2c3c(n(CCCN(C)C)c(=O)c2cc1OC)-c1cc2c(cc1C3=O)OCO2', 'COLO 205 colon', '0 (no)'),
  ('Cn1ccnc1C(=O)/C=C/c1ccc(C(=O)Nc2ccccc2F)cc1', 'COLO 205 colon', '0 (no)'),
  ('COc1cc(C(=O)/C=C/c2cc(-c3cc(OC)c(OC)c(OC)c3)n[nH]2)cc(OC)c1OC', 'COLO 205 colon', '0 (no)'),
  ('O=C1CS/C(=N/S(=O)(=O)c2ccc(N3N=C4c5ccccc5CC4C3c3cccs3)cc2)N(c2ccccc2)C1 (stereo not given)', 'COLO 205 colon', '0 (no)'),
  ('NCCSCC(N)C(=O)O (stereo not given)', 'COLO 205 colon', '0 (no)');

Test call, this compound: C[C@@H]1CCC2[C@@H](C)[C@@H](OC3CCC(O)CC3)OC3O[C@@]4(C)CCC1[C@]32OO4 (stereo not given in full)
0 (no)

Test call, this compound: COc1ccc(OC)c(Nc2nc3ccccc3c3c2-c2ccc(OC)cc2C3=O)c1
0 (no)

Test call, this compound: O=C(N/N=C\c1cc(Cl)ccc1O)c1ccncc1
0 (no)

Test call, this compound: Cc1ccc2nc3ccccc3c(NCc3ccccc3)c2c1
0 (no)

Test call, this compound: O=C(CCl)Nc1ccc2c(Nc3cc(O)ccc3Cl)ncnc2c1
0 (no)

Test call, this compound: CC1=C2[C@H]3OC(=O)[C@@H](C)[C@@H]3CC[C@@]2(C)C=CC1=O
0 (no)

Test call, this compound: C=CCCCC(=O)CCC(=O)OCC1O[C@@H](O[C@@H]2C(O)[C@@H](OC(C)=O)C(C)O[C@H]2O[C@H](CC=C)CCCCC)C(O)[C@@H](OC(=O)/C(C)=C/C)[C@@H]1OC(=O)/C=C/c1ccccc1 (stereo not given in full)
1 (yes)

Test call, this compound: NC(=O)[C@@H](CCC(F)(F)F)N(Cc1ccc(-c2ncon2)cc1F)S(=O)(=O)c1ccc(Cl)cc1
0 (no)

====

# Test system: PC-3 prostate
# test: NCI tumour cell line growth inhibition, 48 h
This listing pairs compounds with measured TGI.

Example entries and their recorded answers appear below.
INSERT INTO measurements (compound, value) VALUES
  ('CO[C@@H]1[C@H](O)CC[C@]2(CO2)[C@H]1[C@@]1(C)O[C@@H]1CC=C(C)C', '> 200 µM'),
  ('CC(C)(C)OC(=O)CCC1NC(=O)[C@@H]2Cc3c([nH]c4ccccc34)C(C3CCCCC3)N2C1=O (stereo not given in full)', '74.2 µM'),
  ('Clc1ccc(C2c3ccccc3-c3nc4ccccc4n32)cc1 (stereo not given)', '> 77.1 µM'),
  ('O=C1/C(=C/c2ccc(Cl)cc2)CCC/C1=C\c1ccc(O)c(CN2CCCCC2)c1', '> 100 µM'),
  ('CN1CCN(Cn2nc(COc3ccc(Cl)cc3)n(/N=C/c3ccc(-c4ccc(Cl)cc4Cl)o3)c2=S)CC1', '23.5 µM');

Find TGI (PC-3 prostate) for the entry O=C(/C=C/c1ccc2c(c1)OCO2)NCc1ccco1
> 100 µM

Find TGI (PC-3 prostate) for the entry Cn1ncc(NCCn2cnc3c2c(=O)n(C)c(=O)n3C)c(Cl)c1=O
> 100 µM

Find TGI (PC-3 prostate) for the entry Cn1cc(-c2ccc(-c3cn(C)c4ncccc34)[nH]2)c2cccnc21
3.38 µM

Find TGI (PC-3 prostate) for the entry CC(=O)OCCOCn1cc(C=O)c2ccccc21
> 100 µM

Find TGI (PC-3 prostate) for the entry N#Cc1c(-c2ccc(Cl)cc2)cc(-c2cc(O)ccc2O)nc1N
> 33.9 µM

Reference source for all entries: PubChem BioAssay (NCI)
